- measuredOn: T1, Rb^P H585Y (human, UniProt P06400 380-788, H585Y)
- T1 construct: also called variant 33
- T1 sequence (looked up): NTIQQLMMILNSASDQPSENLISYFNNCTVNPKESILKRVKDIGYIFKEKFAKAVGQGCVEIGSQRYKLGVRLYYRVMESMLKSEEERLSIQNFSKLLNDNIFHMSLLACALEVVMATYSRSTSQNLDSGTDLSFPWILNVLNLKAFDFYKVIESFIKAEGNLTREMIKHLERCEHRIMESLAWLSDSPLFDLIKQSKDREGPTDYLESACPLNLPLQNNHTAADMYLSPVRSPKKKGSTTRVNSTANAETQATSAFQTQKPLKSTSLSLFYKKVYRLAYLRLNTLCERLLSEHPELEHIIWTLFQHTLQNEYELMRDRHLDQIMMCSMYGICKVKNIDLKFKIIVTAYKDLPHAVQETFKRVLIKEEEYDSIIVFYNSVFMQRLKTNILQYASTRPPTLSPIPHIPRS
- protocolText: fluorescence polarisation; 37 °C, after the 25 °C reading ramped over 7 min to 37 °C and 2 min incubation; unlabeled Rb^P against 1.5 nM TMR-E2F1^TD or 7.5 nM TMR-E7^LxCxE; 25 mM Tris pH 8.0, 200 mM NaCl, 1 mM DTT, 0.1% Tween-20; apparent Kd
- appliedConditions: both partners purified
No end group written: not given here. TMR = tetramethyl rhodamine dye
assayMetric: pKd
pKd here is simply -log10 of the concentration when that concentration is written in mol/L.

{"binder": "{TMR}-GEGIRDLFDCDFGDLTPLD (also called E2F^TD; source: synthetic peptide, bought: GenScript) [TMR-E2F1^TD, peptide of the E2F1 transactivation domain]", "numericReadout": 7.04}

# context switch: different binder, same pKd
// pKd value for DLYCYEQLN (also: TMR label, position not given here, source: synthetic peptide, bought: GenScript) [TMR-E7^LxCxE, LxCxE peptide of the E7 oncoprotein from HPV] : 7.74
